SUBJECT OF TEST: Ikaros (protein product of gene IKZF1) (Homo sapiens, UniProt Q13422+Q96SW2)
Construct: endogenous in cells; host or cells: OCI-LY10
Sequence (Q13422 whole entry): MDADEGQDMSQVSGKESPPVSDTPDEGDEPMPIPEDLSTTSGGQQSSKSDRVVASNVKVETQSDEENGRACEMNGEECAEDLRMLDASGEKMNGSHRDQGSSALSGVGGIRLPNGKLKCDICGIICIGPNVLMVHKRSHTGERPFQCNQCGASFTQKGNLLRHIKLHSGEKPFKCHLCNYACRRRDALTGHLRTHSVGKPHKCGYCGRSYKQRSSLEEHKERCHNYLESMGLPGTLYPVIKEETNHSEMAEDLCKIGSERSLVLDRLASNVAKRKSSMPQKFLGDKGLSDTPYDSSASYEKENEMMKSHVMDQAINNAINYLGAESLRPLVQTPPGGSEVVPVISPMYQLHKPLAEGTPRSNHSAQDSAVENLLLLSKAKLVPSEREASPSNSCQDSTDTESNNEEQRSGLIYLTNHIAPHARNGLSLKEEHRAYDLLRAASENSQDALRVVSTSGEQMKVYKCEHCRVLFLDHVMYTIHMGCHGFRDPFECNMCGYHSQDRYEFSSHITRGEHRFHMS
Sequence (Q96SW2 whole entry): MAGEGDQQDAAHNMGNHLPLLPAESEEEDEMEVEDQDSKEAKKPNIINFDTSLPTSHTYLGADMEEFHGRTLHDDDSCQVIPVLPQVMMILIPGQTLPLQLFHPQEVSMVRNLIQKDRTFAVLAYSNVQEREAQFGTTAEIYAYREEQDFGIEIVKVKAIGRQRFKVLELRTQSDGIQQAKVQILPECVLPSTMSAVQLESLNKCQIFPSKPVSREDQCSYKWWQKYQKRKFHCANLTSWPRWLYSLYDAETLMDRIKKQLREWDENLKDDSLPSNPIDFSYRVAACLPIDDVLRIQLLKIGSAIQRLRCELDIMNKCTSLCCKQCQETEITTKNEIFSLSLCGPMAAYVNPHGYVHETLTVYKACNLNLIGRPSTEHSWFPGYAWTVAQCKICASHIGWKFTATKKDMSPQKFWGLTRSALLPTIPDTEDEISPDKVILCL
Sequence (Q16531 whole entry partner): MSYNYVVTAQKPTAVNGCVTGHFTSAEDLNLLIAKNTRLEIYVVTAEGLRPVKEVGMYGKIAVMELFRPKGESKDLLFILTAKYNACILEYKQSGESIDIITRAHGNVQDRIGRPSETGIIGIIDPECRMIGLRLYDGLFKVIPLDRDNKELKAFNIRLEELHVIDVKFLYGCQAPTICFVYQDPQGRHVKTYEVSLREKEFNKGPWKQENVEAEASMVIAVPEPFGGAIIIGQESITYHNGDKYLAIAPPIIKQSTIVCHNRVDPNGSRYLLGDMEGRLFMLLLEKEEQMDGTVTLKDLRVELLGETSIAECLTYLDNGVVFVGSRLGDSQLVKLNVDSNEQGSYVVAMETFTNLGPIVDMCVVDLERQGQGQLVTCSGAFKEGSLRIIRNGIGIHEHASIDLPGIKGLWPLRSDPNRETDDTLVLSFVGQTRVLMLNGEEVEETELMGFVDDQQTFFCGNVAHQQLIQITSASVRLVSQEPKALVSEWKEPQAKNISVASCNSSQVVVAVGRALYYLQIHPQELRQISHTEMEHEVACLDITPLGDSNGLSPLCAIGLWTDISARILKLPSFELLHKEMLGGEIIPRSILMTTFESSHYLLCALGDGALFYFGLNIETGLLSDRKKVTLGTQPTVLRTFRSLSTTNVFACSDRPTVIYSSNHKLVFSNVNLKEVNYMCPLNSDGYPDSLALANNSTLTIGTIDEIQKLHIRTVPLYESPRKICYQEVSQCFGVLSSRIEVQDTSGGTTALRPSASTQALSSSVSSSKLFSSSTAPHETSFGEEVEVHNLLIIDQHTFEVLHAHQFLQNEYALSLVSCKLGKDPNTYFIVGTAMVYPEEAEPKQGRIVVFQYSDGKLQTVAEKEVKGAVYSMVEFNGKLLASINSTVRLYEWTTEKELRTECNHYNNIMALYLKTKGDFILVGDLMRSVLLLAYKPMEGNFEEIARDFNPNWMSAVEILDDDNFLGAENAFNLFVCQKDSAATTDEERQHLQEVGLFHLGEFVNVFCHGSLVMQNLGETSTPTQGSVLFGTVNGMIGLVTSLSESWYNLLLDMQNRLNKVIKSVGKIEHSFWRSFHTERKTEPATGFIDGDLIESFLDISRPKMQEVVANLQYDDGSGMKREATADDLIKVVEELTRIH
EXPERIMENT SUMMARY: Quantification of Ikaros degradation in OCI-LY10 cells (quantitative immunoblotting)
Format: cell-based
MEASUREMENT CONTEXT: 6 h treatment
PROPERTY: DC50

| MOLECULE | DC50 |
| --- | --- |
| CC(C)(O)c1cc2nc([C@H]3CC[C@@H](CN4CC5(CC(CCNc6cccc7c6C(=O)N(C6CCC(=O)NC6=O)C7=O)C5)C4)CC3)sc2cc1NC(=O)c1cccc(C(F)(F)F)n1 (stereo partly shown) | < 0.05 µM |
| CC(C)(O)c1cc2nc(N3CCC(CN4CC5(CC(CCNc6cccc7c6C(=O)N(C6CCC(=O)NC6=O)C7=O)C5)C4)CC3)sc2cc1NC(=O)c1cccc(C(F)(F)F)n1 (stereo not shown) | < 0.05 µM |
| CC(C)(O)c1cc2nc(N3CCC(CN4CCC5(CC4)CC(CNc4cccc6c4C(=O)N(C4CCC(=O)NC4=O)C6=O)C5)CC3)sc2cc1NC(=O)c1cccc(C(F)(F)F)n1 (stereo not shown) | < 0.05 µM |
| COc1cc2nc([C@H]3CC[C@H](CN4CCC(CCNc5cccc6c5C(=O)N(C5CCC(=O)NC5=O)C6=O)CC4)CC3)sc2cc1NC(=O)c1cccc(C(C)(F)F)n1 (stereo partly shown) | 0.05 to 0.1 µM |
| CC(C)(O)c1cc2nc([C@H]3CC[C@H](CN4CC5(CC(CCNc6cccc7c6C(=O)N(C6CCC(=O)NC6=O)C7=O)C5)C4)CC3)sc2cc1NC(=O)c1cccc(C(F)(F)F)n1 (stereo partly shown) | < 0.05 µM |
| COc1cc2nc([C@H]3CC[C@H](CN4CCC5(CC4)CC(Nc4cccc6c4C(=O)N(C4CCC(=O)NC4=O)C6=O)C5)CC3)sc2cc1NC(=O)c1cnn2cccnc12 (stereo partly shown) | < 0.05 µM |
| COc1cc2nc([C@H]3CC[C@H](CN4CC5(CC(CCNc6cccc7c6C(=O)N(C6CCC(=O)NC6=O)C7=O)C5)C4)CC3)sc2cc1-n1ccc2ccccc2c1=O (stereo partly shown) | < 0.05 µM |
| CC(C)(O)c1cc2nc([C@H]3CC[C@H](N4CC5(CC(CCNc6cccc7c6C(=O)N(C6CCC(=O)NC6=O)C7=O)C5)C4)CC3)sc2cc1NC(=O)c1cccc(C(F)(F)F)n1 (single isomer, unassigned) | < 0.05 µM |
| CC(C)(O)c1cc2nc([C@H]3CC[C@H](CN4CCC5(CC4)CC(CNc4cccc6c4C(=O)N(C4CCC(=O)NC4=O)C6=O)C5)CC3)sc2cc1NC(=O)c1cccc(C(F)(F)F)n1 (stereo partly shown) | < 0.05 µM |
| COc1cc2nc([C@H]3CC[C@H](CN4CCC5(CC4)CC(CCNc4cccc6c4C(=O)N(C4CCC(=O)NC4=O)C6=O)C5)CC3)sc2cc1NC(=O)c1cccc(C(C)(F)F)n1 (stereo partly shown) | 0.05 to 0.1 µM |

Dear colleague, could you send me DC50 for each of the items below? Thanks.
1. Cc1cccc(C(=O)Nc2cc3sc([C@H]4CC[C@H](CN(C)[C@H]5CC[C@H](Nc6cccc7c6C(=O)N(C6CCC(=O)NC6=O)C7=O)CC5)CC4)nc3cc2C(C)(C)O)n1 (stereo partly shown)
2. CC(C)(O)c1cc2nc(N3CCC(CN4CCC5(CC4)CC(CCNc4cccc6c4C(=O)N(C4CCC(=O)NC4=O)C6=O)C5)CC3)sc2cc1NC(=O)c1cccc(C(F)(F)F)n1 (stereo not shown)
3. CC(C)(O)c1cc2nc([C@H]3CC[C@H](CN4CCC5(CC4)CC4(CC(CCNc6cccc7c6C(=O)N(C6CCC(=O)NC6=O)C7=O)C4)C5)CC3)sc2cc1NC(=O)c1cccc(C(F)(F)F)n1 (stereo partly shown)
4. CC(C)(O)c1cc2nc(N3CC(CN4CC5(CC(CNc6cccc7c6C(=O)N(C6CCC(=O)NC6=O)C7=O)C5)C4)C3)sc2cc1NC(=O)c1cccc(C(F)(F)F)n1 (stereo not shown)
5. COc1cc2nc([C@H]3CC[C@H](CN4CCC(O[C@H]5C[C@H](Nc6cccc7c6C(=O)N(C6CCC(=O)NC6=O)C7=O)C5)CC4)CC3)sc2cc1NC(=O)c1cccc(C(F)(F)F)n1 (stereo partly shown)
6. CC(C)(O)c1cc2nc([C@H]3CC[C@H](CN4CC5(CC(CCNc6cccc7c6C(=O)N(C6CCC(=O)NC6=O)C7=O)C5)C4)CC3)sc2cc1NC(=O)c1ccc(C(F)(F)F)nn1 (stereo partly shown)
7. COc1cc2nc([C@H]3CC[C@H](CN4CC5(CCC(CNc6cccc7c6C(=O)N(C6CCC(=O)NC6=O)C7=O)CC5)C4)CC3)sc2cc1NC(=O)c1cccc(C(F)(F)F)n1 (stereo partly shown)

1. 0.1 to 0.5 µM
2. < 0.05 µM
3. 0.1 to 0.5 µM
4. < 0.05 µM
5. < 0.05 µM
6. < 0.05 µM
7. 0.1 to 0.5 µM

Please go through the list and note DC50 for each molecule.
1. COc1cc2nc([C@H]3CC[C@H](CN4CC5(CC(CCNc6cccc7c6C(=O)N(C6CCC(=O)NC6=O)C7=O)C5)C4)CC3)sc2cc1NC(=O)c1cccc(C(F)(F)F)n1 (stereo partly shown)
2. CC(C)(O)c1nc2nc([C@H]3CC[C@H](CN4CC5(CC(CCNc6cccc7c6C(=O)N(C6CCC(=O)NC6=O)C7=O)C5)C4)CC3)sc2cc1NC(=O)c1cccc(C(F)(F)F)n1 (stereo partly shown)
3. Cc1cccc(C(=O)Nc2cc3sc([C@H]4CC[C@H](CN5CCC6(CC5)CC(CCNc5cccc7c5C(=O)N(C5CCC(=O)NC5=O)C7=O)C6)CC4)nc3cc2C(C)(C)O)n1 (stereo partly shown)
4. CN(C[C@H]1CC[C@H](c2nc3cc(C(C)(C)O)c(NC(=O)c4cccc(C(F)(F)F)n4)cc3s2)CC1)[C@H]1CC[C@]2(CC1)C[C@@H](CNc1cccc3c1C(=O)N(C1CCC(=O)NC1=O)C3=O)C2 (stereo partly shown)

< 0.05 µM
< 0.05 µM
< 0.05 µM
< 0.05 µM

Name the reported DC50 value associated with the molecule CC(C)(O)c1cc2nc([C@H]3CC[C@H](CN4CCC5(CC4)CC(CCNc4cccc6c4C(=O)N(C4CCC(=O)NC4=O)C6=O)C5)CC3)sc2cc1NC(=O)c1cccc(C(F)(F)F)n1 (stereo partly shown)
< 0.05 µM
